target: first (BD1: amino acids K57-E168) bromodomain of BRD4 (Homo sapiens, UniProt O60885); construct: His-tagged first (BD1: amino acids K57-E168); assay: TR-FRET bromodomain binding assay, BRD4 BD1; settings: TR-FRET assay protocol (A-G, compound concentration range); Ki calculated from IC50, probe Kd and probe concentration; read-out: TR-FRET Binding Ki: BRD4 (BDI_K57-E168)
# YES = Ki below 0.04 µM (exclusive); NO = Ki at/above 0.04 µM

Problem: For the compound `CN1CCC(c2cc(=O)n(C)nc2-c2ccccc2Oc2ccccc2)CC1` , is Ki under 0.04 µM?
NO

Problem: For the compound `Cn1nc(-c2ccccc2Oc2ccccc2)c(-c2ccnc(F)c2)cc1=O` , is Ki under 0.04 µM?
NO

Problem: For the compound `CCOc1cc(=O)n(C)cc1-c1cc(NS(=O)(=O)Cc2ccccc2F)ccc1Oc1ccc(F)cc1F` , is Ki under 0.04 µM?
YES

Problem: For the compound `CC(=O)Nc1cncc(-c2cc(=O)n(C)nc2-c2ccccc2Oc2ccccc2)c1` , is Ki under 0.04 µM?
NO

Problem: For the compound `Cn1cc(-c2cc(NS(C)(=O)=O)ccc2Oc2ccc(C(F)(F)F)cc2)ccc1=O` , is Ki under 0.04 µM?
NO

* * *

target: first (BD1: amino acids K57-E168) bromodomain of BRD4 (Homo sapiens, UniProt O60885); construct: His-tagged first (BD1: amino acids K57-E168); assay: TR-FRET bromodomain binding assay, BRD4 BD1; conditions: TR-FRET assay protocol (A-G, compound concentration range); Ki calculated from IC50, probe Kd and probe concentration; read-out: TR-FRET Binding Ki: BRD4 (BDI_K57-E168)
Provide the reported pKi of each item.
Conceptually, pKi converts a concentration in mol/L into minus its log10.

Fill in pKi for record `CN1CCN(c2cc(=O)n(C)nc2-c2ccccc2Oc2ccccc2)CC1=O`
4.94

Fill in pKi for record `CCOC(=O)Nc1cc(-c2cc(S(=O)(=O)CC)ccc2OCC2CC2)cn(C)c1=O`
6.94

Fill in pKi for record `COC(=O)Cc1ccc(-c2cc(=O)n(C)nc2-c2ccccc2Oc2ccccc2)cc1`
5.50

Fill in pKi for record `Cn1nc(-c2ccccc2Oc2ccccc2)c(-c2ccc(N3CCNCC3)nc2)cc1=O`
6.40

* * *

target: first (BD1: amino acids K57-E168) bromodomain of BRD4 (Homo sapiens, UniProt O60885); construct: His-tagged first (BD1: amino acids K57-E168); experiment: TR-FRET bromodomain binding assay, BRD4 BD1; details: TR-FRET assay protocol (A-G, compound concentration range); Ki calculated from IC50, probe Kd and probe concentration; read-out: TR-FRET Binding Ki: BRD4 (BDI_K57-E168)
Measured parameter: pKi
Conceptually, pKi converts a concentration in mol/L into minus its log10.

Fill in pKi for record CC(O)c1ccc(-c2cc(=O)n(C)nc2-c2ccccc2Oc2ccccc2)cc1 (stereo not drawn)
6.65

Fill in pKi for record `Cn1cc(-c2cc(Nc3ccccn3)ccc2Oc2ccccc2)ccc1=O`
6.49

Fill in pKi for record `Cc1c(-c2cc(=O)n(C)nc2-c2ccccc2Oc2ccccc2)cnn1C`
5.99

Fill in pKi for record `Cn1nc(-c2ccccc2Oc2ccccc2)c(C2=CCNCC2)cc1=O`
5.39

Fill in pKi for record `Cc1ccncc1-c1cc(=O)n(C)nc1-c1ccccc1Oc1ccccc1`
5.15

Fill in pKi for record `Cn1nc(-c2ccccc2OCc2ccccc2)ccc1=O`
4.93

Fill in pKi for record `CCOc1cc(=O)n(C)cc1-c1cc(NC(=O)CC(C)(C)C)ccc1Oc1ccc(F)cc1F`
6.71

Fill in pKi for record `Cn1nc(-c2cc(C(N)=O)ccc2Oc2ccccc2)ccc1=O`
5.59

Fill in pKi for record `CCNS(=O)(=O)c1ccc(Oc2ccccc2)c(-c2ccc(=O)n(C)c2)c1`
6.20

Fill in pKi for record `CC(=O)Nc1cccc(-c2cc(=O)n(C)nc2-c2ccccc2Oc2ccccc2)c1`
6.75

Fill in pKi for record `CN(C)CCCNC(=O)c1cccc(-c2cc(=O)n(C)nc2-c2ccccc2Oc2ccccc2)c1`
5.70

Fill in pKi for record `Cn1nc(-c2ccccc2Oc2ccccc2)c(-c2ccc(C(=O)NC3CCCC3)cc2)cc1=O`
6.22

Fill in pKi for record Cn1cc(-c2cc(NS(C)(=O)=O)ccc2OC2CCOC2)ccc1=O (stereo not drawn)
7.06

Fill in pKi for record `CCO/C=C\c1cc(=O)n(C)cc1-c1cc(S(C)(=O)=O)ccc1NCC1CC1`
6.21

Fill in pKi for record `CC(=O)N1CC=C(c2cc(=O)n(C)nc2-c2ccccc2Oc2ccccc2)CC1`
5.99

Fill in pKi for record `Cn1cc(-c2cc(NS(C)(=O)=O)ccc2Oc2ccc(F)cc2F)c(Cl)cc1=O`
6.61

Fill in pKi for record `Cn1cc(-c2cc(NC(=O)c3ccc[nH]3)ccc2Oc2ccccc2)ccc1=O`
6.71

* * *

biological target: first (BD1: amino acids K57-E168) bromodomain of BRD4 (Homo sapiens, UniProt O60885); construct: His-tagged first (BD1: amino acids K57-E168); assay: TR-FRET bromodomain binding assay, BRD4 BD1; conditions: TR-FRET assay protocol (A-G, compound concentration range); Ki calculated from IC50, probe Kd and probe concentration; read-out: TR-FRET Binding Ki: BRD4 (BDI_K57-E168)
Measured parameter: pKi
Conceptually, pKi converts a concentration in mol/L into minus its log10.

// fetch pKi for `Cn1cc(-c2cc(NS(C)(=O)=O)ccc2Oc2cccc(C#N)c2)ccc1=O` ; system: first (BD1: amino acids K57-E168) bromodomain of BRD4 (Homo sapiens, UniProt O60885)
7.10

// fetch pKi for `COc1cc(=O)n(C)nc1-c1ccccc1OCC1CCNCC1` ; system: first (BD1: amino acids K57-E168) bromodomain of BRD4 (Homo sapiens, UniProt O60885)
5.57

// fetch pKi for `CCOC(=O)c1cccc(-c2cc(=O)n(C)nc2-c2ccccc2Oc2ccccc2)c1` ; system: first (BD1: amino acids K57-E168) bromodomain of BRD4 (Homo sapiens, UniProt O60885)
5.01

// fetch pKi for C=CCC(O)c1ccc(-c2cc(=O)n(C)nc2-c2ccccc2Oc2ccccc2)cc1 (stereo not shown) ; system: first (BD1: amino acids K57-E168) bromodomain of BRD4 (Homo sapiens, UniProt O60885)
6.29

// fetch pKi for CCC(O)c1ccc(-c2cc(=O)n(C)nc2-c2ccccc2Oc2ccccc2)cc1 (stereo not shown) ; system: first (BD1: amino acids K57-E168) bromodomain of BRD4 (Homo sapiens, UniProt O60885)
6.58

// fetch pKi for `CCS(=O)(=O)Nc1ccc(Oc2ccc(F)cc2F)c(-c2cn(C)c(=O)cc2NCC2CC2)c1` ; system: first (BD1: amino acids K57-E168) bromodomain of BRD4 (Homo sapiens, UniProt O60885)
8.36

// fetch pKi for `Cn1nc(-c2ccccc2Oc2ccccc2)c(-c2ccc(C(=O)NC3CCCCC3)cc2)cc1=O` ; system: first (BD1: amino acids K57-E168) bromodomain of BRD4 (Homo sapiens, UniProt O60885)
6.08

// fetch pKi for `CN(C)C(=O)c1cc(-c2cc(=O)n(C)nc2-c2ccccc2Oc2ccccc2)ccc1F` ; system: first (BD1: amino acids K57-E168) bromodomain of BRD4 (Homo sapiens, UniProt O60885)
5.26

// fetch pKi for `CC(=O)c1cccc(-c2cc(=O)n(C)nc2-c2ccccc2Oc2ccccc2)c1` ; system: first (BD1: amino acids K57-E168) bromodomain of BRD4 (Homo sapiens, UniProt O60885)
5.62

// fetch pKi for `COc1cc(=O)n(C)nc1-c1ccccc1OCc1ccccn1` ; system: first (BD1: amino acids K57-E168) bromodomain of BRD4 (Homo sapiens, UniProt O60885)
5.02

// fetch pKi for `Cn1cc(-c2cc(NS(C)(=O)=O)ccc2Oc2ccccc2Cl)ccc1=O` ; system: first (BD1: amino acids K57-E168) bromodomain of BRD4 (Homo sapiens, UniProt O60885)
7.32

// fetch pKi for `Cn1nc(-c2ccccc2Oc2ccccc2)c(-c2ccc(CNc3ccccc3)cc2)cc1=O` ; system: first (BD1: amino acids K57-E168) bromodomain of BRD4 (Homo sapiens, UniProt O60885)
5.31

// fetch pKi for `COc1cc(=O)n(C)nc1-c1ccccc1Oc1ccc(F)cc1` ; system: first (BD1: amino acids K57-E168) bromodomain of BRD4 (Homo sapiens, UniProt O60885)
5.52

// fetch pKi for `CCS(=O)(=O)Nc1ccc(OC2CCC(F)(F)CC2)c(-c2c[nH]c(=O)c(C)c2)c1` ; system: first (BD1: amino acids K57-E168) bromodomain of BRD4 (Homo sapiens, UniProt O60885)
7.32

// fetch pKi for `Cn1nc(-c2ccccc2Oc2ccccc2)c(-c2cccc(C(=O)NC3CC3)c2)cc1=O` ; system: first (BD1: amino acids K57-E168) bromodomain of BRD4 (Homo sapiens, UniProt O60885)
5.38

// fetch pKi for `CCOc1cccc(-c2cc(=O)n(C)nc2-c2ccccc2Oc2ccccc2)c1F` ; system: first (BD1: amino acids K57-E168) bromodomain of BRD4 (Homo sapiens, UniProt O60885)
5.36

// fetch pKi for `Cn1nc(-c2ccccc2Oc2ccccc2)c(-c2cccc(NS(C)(=O)=O)c2)cc1=O` ; system: first (BD1: amino acids K57-E168) bromodomain of BRD4 (Homo sapiens, UniProt O60885)
6.21

// fetch pKi for `CCOc1cc(=O)n(C)cc1-c1cc(NS(=O)(=O)c2ccc(S(C)(=O)=O)cc2)ccc1Oc1ccc(F)cc1F` ; system: first (BD1: amino acids K57-E168) bromodomain of BRD4 (Homo sapiens, UniProt O60885)
7.02

// fetch pKi for `CC(C)Cn1cc(-c2cc(=O)n(C)nc2-c2ccccc2Oc2ccccc2)cn1` ; system: first (BD1: amino acids K57-E168) bromodomain of BRD4 (Homo sapiens, UniProt O60885)
6.39

// fetch pKi for COC(C)c1ccc(-c2cc(=O)n(C)nc2-c2ccccc2Oc2ccccc2)cc1 (stereo not shown) ; system: first (BD1: amino acids K57-E168) bromodomain of BRD4 (Homo sapiens, UniProt O60885)
6.22

// fetch pKi for `Cc1cc(-c2cc(NS(C)(=O)=O)ccc2OC2CCC(F)(F)CC2)c[nH]c1=O` ; system: first (BD1: amino acids K57-E168) bromodomain of BRD4 (Homo sapiens, UniProt O60885)
7.23

// fetch pKi for `CNC(=O)c1ccc(-c2cc(=O)n(C)nc2-c2ccccc2Oc2ccccc2)cc1` ; system: first (BD1: amino acids K57-E168) bromodomain of BRD4 (Homo sapiens, UniProt O60885)
6.60

// fetch pKi for `CCS(=O)(=O)Nc1ccc(Oc2ccc(F)cc2F)c(-c2cn(C)c(=O)cc2-n2cccn2)c1` ; system: first (BD1: amino acids K57-E168) bromodomain of BRD4 (Homo sapiens, UniProt O60885)
7.38

// fetch pKi for `Cn1nc(-c2ccccc2Oc2ccccc2)c(-c2ccc(N3CCCCC3)nc2)cc1=O` ; system: first (BD1: amino acids K57-E168) bromodomain of BRD4 (Homo sapiens, UniProt O60885)
5.67

// fetch pKi for `CCN(CC)C(=O)c1cccc(-c2cc(=O)n(C)nc2-c2ccccc2Oc2ccccc2)c1` ; system: first (BD1: amino acids K57-E168) bromodomain of BRD4 (Homo sapiens, UniProt O60885)
5.07

// fetch pKi for `CNS(=O)(=O)Nc1ccc(Oc2ccccc2)c(-c2ccc(=O)n(C)c2)c1` ; system: first (BD1: amino acids K57-E168) bromodomain of BRD4 (Homo sapiens, UniProt O60885)
7.25

// fetch pKi for `COC(=O)c1cc(=O)n(C)nc1-c1ccccc1Oc1ccccc1` ; system: first (BD1: amino acids K57-E168) bromodomain of BRD4 (Homo sapiens, UniProt O60885)
6.11

// fetch pKi for `COc1cc(=O)n(C)cc1-c1cc(NS(C)(=O)=O)ccc1Oc1ccccc1` ; system: first (BD1: amino acids K57-E168) bromodomain of BRD4 (Homo sapiens, UniProt O60885)
7.54

// fetch pKi for `CCOc1cc(=O)n(C)cc1-c1cc(NCC(C)(C)C)ccc1Oc1ccc(F)cc1F` ; system: first (BD1: amino acids K57-E168) bromodomain of BRD4 (Homo sapiens, UniProt O60885)
6.25

// fetch pKi for `Cn1nc(-c2ccccc2Oc2ccccc2)c(-c2ccc(CNS(C)(=O)=O)cc2)cc1=O` ; system: first (BD1: amino acids K57-E168) bromodomain of BRD4 (Homo sapiens, UniProt O60885)
6.67

// fetch pKi for `CC(=O)c1cccc(-c2cc(=O)n(C)nc2-c2ccccc2Oc2ccccc2)c1F` ; system: first (BD1: amino acids K57-E168) bromodomain of BRD4 (Homo sapiens, UniProt O60885)
5.09

// fetch pKi for `CN1CC=C(c2cc(=O)n(C)nc2-c2ccccc2Oc2ccccc2)CC1` ; system: first (BD1: amino acids K57-E168) bromodomain of BRD4 (Homo sapiens, UniProt O60885)
5.44

The measured values listed here are drawn from patent US9561231B2.
